Test system: DGAT
Test: DGAT Phospholipid FlashPlate Assay
Assay type: biochemical
Details: DGAT pellet, DAG-coated PL-FlashPlate, 14C-Pal-CoA, 37° C. for 1 hour; read-out: DGAT Inhibition Activity IC50
Counter-ions that a name gives are not always drawn.
readout type: pIC50
Schema: pIC50 number; meaning minus log10 of the concentration expressed in molar units.

Q: For CCn1c(C(=O)Nc2ccc(N(C)CCOC)nc2)cc2cc(Cl)ccc21 [Example 43, hydrochloride] , what is its reported pIC50?
Result: 6.79

Q: Next molecule up: `COc1cccc2c(C)c(C(=O)Nc3ccc(C4CCN(C(=O)[C@H]5CC[C@H](C(=O)O)CC5)CC4)cc3)[nH]c12`
Result: 7.24

Q: Also check `CCn1c(C(=O)Nc2ccc(N3CCN(C(=O)OC(C)(C)C)CC3)cc2)cc2c(Cl)c(Cl)ccc21`
Result: 6.09

Q: What do we get for `CC(C)(C)OC(=O)N1CCN(c2ccc(NC(=O)c3cc4c(Cl)cccc4s3)cn2)CC1` ?
Result: 6.53

Q: One more molecule: CCOC(=O)N1CC[C@H](Nc2ccc(NC(=O)c3cc4cc(Br)ccc4n3CC)cn2)C1 [Example 50, hydrochloride]
Result: 6.03

###

System: DGAT
Experiment: DGAT Phospholipid FlashPlate Assay
Type: biochemical
Settings: DGAT pellet, DAG-coated PL-FlashPlate, 14C-Pal-CoA, 37° C. for 1 hour; read-out: DGAT Inhibition Activity IC50
Counter-ions that a name gives are not always drawn.
readout type: pIC50
Scale: negative log10 of molar concentration, which is what pIC50 denotes.

Solved cases below.
CCn1c(C(=O)Nc2ccc(N3CCN(C(=O)OC(C)(C)C)CC3)nc2)cc2cc(Cl)ccc21    6.24
CCn1c(C(=O)Nc2ccc(C3CCN(C(=O)CC(C)(C)C(=O)O)CC3)cc2)cc2c(C)cccc21    6.28
COCCN(C)c1ccc(NC(=O)c2cc3ccccc3s2)cn1    6.17
COCCN(C)c1ccc(NC(=O)c2sc3ccccc3c2C)cn1 [Example 35, hydrochloride]    6.45

Q: Give the measured pIC50 of `CCOC(=O)N1CC[C@H](Nc2ccc(NC(=O)c3cc4c(OC)cc(OC)cc4n3CC)cn2)C1` .
Result: 6.64

Q: Then `COCc1c(C(=O)Nc2ccc(N3CCN(C(=O)OC(C)(C)C)CC3)cc2)oc2ccccc12` ?
Result: 6.03

Q: # repeat for `CCOc1cccc2c1cc(C(=O)Nc1ccc(O[C@H]3CCN(c4ccc(C(=O)O)cc4)C3)cc1)n2CC`
Result: 6.53

Q: Same question, `CCn1c(C(=O)Nc2ccc(N3CCN(C(=O)OC(C)(C)C)CC3)nc2)cc2c(OC)c(OC)ccc21` this time
Result: 7.07

###

Test system: DGAT
Experiment: DGAT Phospholipid FlashPlate Assay
Assay type: biochemical
Conditions: DGAT pellet, DAG-coated PL-FlashPlate, 14C-Pal-CoA, 37° C. for 1 hour; read-out: DGAT Inhibition Activity IC50
Structures can show the parent of a compound that is named as a salt.
readout type: IC50 (nM)
Report only the number, with the unit nM understood.

// below: answered molecules
CCn1c(C(=O)Nc2ccc(N(C)CCOC)nc2)cc2cc(OC)ccc21 [Example 39, hydrochloride]    312
CCn1c(C(=O)Nc2ccc(C3CCN(C(=O)[C@H]4CC[C@H](C(=O)O)CC4)CC3)cc2)cc2c(C)cccc21 [Example 30]    824

Q: Could you share which IC50 value was measured for CCOC(=O)N1CCC(Oc2ccc(NC(=O)c3oc4ccccc4c3COC)cc2)C1 (stereo not drawn) [Example 81] ?
Result: 720
